biological target: NMDA receptor subunits 1A/2B (Rattus norvegicus, UniProt P35439+Q00960); construct: expressed in transfected cells; host or cells: Xenopus laevis oocytes (cRNA injection; clones from Dr. P. H. Seeburg); experiment: Electrophysiological assay at NMDA receptor subunits expressed in Xenopus oocytes, 1A/2B; type: cell-based
Sequence (Q00960 27-1482, other chains not shown): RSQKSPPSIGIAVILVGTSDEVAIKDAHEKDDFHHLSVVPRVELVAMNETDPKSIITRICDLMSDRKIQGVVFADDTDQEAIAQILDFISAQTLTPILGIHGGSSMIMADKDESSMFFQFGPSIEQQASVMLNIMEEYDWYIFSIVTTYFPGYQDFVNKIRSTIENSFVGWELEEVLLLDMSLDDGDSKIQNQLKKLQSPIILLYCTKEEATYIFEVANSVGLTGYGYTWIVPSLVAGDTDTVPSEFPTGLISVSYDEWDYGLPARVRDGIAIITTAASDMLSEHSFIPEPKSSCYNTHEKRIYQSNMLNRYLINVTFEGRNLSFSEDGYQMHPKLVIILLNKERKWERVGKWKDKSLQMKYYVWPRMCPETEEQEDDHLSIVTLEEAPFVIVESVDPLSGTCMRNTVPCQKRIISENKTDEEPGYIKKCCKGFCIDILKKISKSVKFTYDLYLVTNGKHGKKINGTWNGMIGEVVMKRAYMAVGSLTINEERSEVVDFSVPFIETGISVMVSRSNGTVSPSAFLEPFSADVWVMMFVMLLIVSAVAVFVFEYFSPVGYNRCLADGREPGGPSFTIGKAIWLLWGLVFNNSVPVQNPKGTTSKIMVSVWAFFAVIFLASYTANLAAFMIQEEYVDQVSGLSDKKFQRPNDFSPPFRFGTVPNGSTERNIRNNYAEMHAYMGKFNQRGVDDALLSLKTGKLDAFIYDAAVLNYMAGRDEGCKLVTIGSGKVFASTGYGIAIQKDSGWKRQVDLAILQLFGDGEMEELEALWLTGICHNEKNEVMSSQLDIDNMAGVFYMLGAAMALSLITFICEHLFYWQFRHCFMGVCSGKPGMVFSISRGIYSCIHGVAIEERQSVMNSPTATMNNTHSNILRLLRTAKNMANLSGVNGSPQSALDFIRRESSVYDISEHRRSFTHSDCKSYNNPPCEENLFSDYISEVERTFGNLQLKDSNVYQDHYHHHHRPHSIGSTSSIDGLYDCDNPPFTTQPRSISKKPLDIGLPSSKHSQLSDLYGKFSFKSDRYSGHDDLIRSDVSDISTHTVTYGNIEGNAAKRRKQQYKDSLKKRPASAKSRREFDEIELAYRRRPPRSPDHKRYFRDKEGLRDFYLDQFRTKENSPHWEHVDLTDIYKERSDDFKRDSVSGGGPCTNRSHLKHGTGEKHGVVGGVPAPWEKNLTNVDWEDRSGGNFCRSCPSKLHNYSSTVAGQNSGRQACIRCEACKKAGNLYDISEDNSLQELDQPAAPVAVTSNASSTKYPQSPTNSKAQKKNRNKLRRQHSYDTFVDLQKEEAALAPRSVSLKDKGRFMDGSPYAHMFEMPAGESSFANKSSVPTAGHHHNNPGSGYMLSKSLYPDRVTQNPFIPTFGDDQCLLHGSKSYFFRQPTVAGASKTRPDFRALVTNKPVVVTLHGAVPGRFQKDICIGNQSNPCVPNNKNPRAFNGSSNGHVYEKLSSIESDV
readout-type: IC50

ClCCN1CCC(Cc2ccccc2)CC1    5 µM

====

Recorded measurements of IC50, one per entry
biological target: NMDA receptor subunits 1A/2C (Rattus norvegicus, UniProt P35439+Q00961); construct: expressed in transfected cells; host or cells: Xenopus laevis oocytes (cRNA injection; clones from Dr. P. H. Seeburg); test: Electrophysiological assay at NMDA receptor subunits expressed in Xenopus oocytes, 1A/2C; assay type: cell-based; settings: Xenopus oocytes; glutamate 100 μm and glycine 1-100 μm; read-out: Subunits IC50, 1A/2C
Sequence (Q00961 20-1237, other chains not shown): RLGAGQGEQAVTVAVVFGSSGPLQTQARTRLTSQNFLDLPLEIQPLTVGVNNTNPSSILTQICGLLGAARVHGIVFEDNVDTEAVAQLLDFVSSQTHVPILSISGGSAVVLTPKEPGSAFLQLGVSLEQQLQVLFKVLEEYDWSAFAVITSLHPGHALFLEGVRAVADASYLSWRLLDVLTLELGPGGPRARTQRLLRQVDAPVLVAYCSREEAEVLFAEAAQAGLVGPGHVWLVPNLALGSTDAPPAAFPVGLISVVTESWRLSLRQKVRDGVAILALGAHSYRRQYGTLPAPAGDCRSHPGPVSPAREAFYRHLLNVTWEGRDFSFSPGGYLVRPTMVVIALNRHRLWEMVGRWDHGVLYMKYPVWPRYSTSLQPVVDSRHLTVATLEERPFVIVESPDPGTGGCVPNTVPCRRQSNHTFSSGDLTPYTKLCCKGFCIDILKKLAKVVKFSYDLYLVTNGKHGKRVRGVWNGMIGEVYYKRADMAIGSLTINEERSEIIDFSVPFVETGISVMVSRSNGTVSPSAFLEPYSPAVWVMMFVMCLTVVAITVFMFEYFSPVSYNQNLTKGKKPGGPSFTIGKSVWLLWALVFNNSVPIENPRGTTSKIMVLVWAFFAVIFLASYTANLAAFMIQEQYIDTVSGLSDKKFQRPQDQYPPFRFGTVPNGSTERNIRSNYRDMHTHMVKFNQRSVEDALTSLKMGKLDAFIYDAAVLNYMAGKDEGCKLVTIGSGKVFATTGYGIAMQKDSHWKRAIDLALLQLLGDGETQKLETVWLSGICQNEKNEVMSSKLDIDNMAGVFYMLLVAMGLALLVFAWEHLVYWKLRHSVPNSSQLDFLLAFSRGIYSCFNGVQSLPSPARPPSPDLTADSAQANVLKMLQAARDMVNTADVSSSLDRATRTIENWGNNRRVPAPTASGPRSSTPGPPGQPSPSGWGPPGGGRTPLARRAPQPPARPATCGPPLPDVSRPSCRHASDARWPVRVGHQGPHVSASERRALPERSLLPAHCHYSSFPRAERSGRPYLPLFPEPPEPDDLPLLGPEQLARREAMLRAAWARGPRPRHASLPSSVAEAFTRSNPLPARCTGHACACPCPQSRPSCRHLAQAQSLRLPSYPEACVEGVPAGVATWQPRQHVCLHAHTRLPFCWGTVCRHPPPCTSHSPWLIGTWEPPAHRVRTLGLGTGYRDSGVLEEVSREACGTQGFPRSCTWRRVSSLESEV
Counter-ions that a name gives are not always drawn.
readout-type: IC50

c1ccc(CC2CCN(CCSc3ccccc3)CC2)cc1 [Ex. 144, hydrochloride]    > 300 µM
c1ccc(CC2CCN(CCOc3ccccc3)CC2)cc1    > 100 µM
CN(CCN1CCC(Cc2ccccc2)CC1)c1ccc(O)cc1 [Ex. 163, dihydrochloride]    > 300 µM
Cl.Oc1ccc(SCCN2CCC(Cc3ccc(F)cc3)CC2)cc1 [Ex. 165, hydrochloride]    301 µM
CCOC(=O)Cc1cccc(OCCN2CCC(Cc3ccccc3)CC2)c1    > 100 µM
Cl.Oc1ccc(OCCN2CCC(Cc3ccccc3)CC2)cc1 [Ex. 99, hydrochloride]    > 300 µM
O=c1[nH]c2ccc(OCCN3CC=C(Cc4ccccc4)CC3)cc2[nH]1    210 µM
Oc1ccc(OCCN2CCC(O)(Cc3ccccc3)CC2)cc1 [Ex. 164, hydrochloride]    > 300 µM
Fc1ccc(OCCN2CCC(Cc3ccccc3)CC2)cc1 [Ex. 103, hydrochloride]    > 300 µM
COc1ccc(CC2CCN(CCOc3ccc(F)cc3)CC2)cc1 [Ex. 35, hydrochloride]    > 100 µM
c1ccc(COc2ccc(OCCN3CCC(Cc4ccccc4)CC3)cc2)cc1 [Ex. 98, hydrochloride]    80 µM
Cc1ccc(CC2CCN(CCOc3ccc(O)c(C)c3)CC2)cc1 [Ex. 153, hydrochloride]    70 µM
Fc1ccc(OCCN2CCC(Cc3cccc(F)c3)CC2)cc1 [Ex. 113, hydrochloride]    200 µM
c1ccc(CC2CCN(CCOc3ncnc4ccccc34)CC2)cc1    > 100 µM
O=c1[nH]c2ccc(OCCN3CCC(Cc4ccccc4)CC3)cc2o1    210 µM
O=c1[nH]c2ccc(OCCCN3CCC(Cc4ccccc4)CC3)cc2[nH]1    230 µM
CN(CCN1CCC(Cc2ccccc2)CC1)c1ccccc1 [Ex. 143, dihydrochloride]    > 300 µM
c1ccc(CC2CCN(CCOc3cccc4cccnc34)CC2)cc1    > 100 µM

====

Recorded measurements of pIC50, one per entry
Target: NMDA receptor subunits 1A/2C (Rattus norvegicus, UniProt P35439+Q00961)
Construct: expressed in transfected cells; host or cells: Xenopus laevis oocytes (cRNA injection; clones from Dr. P. H. Seeburg)
Experiment: Electrophysiological assay at NMDA receptor subunits expressed in Xenopus oocytes, 1A/2C
Format: cell-based
Conditions: Xenopus oocytes; glutamate 100 μm and glycine 1-100 μm; read-out: Subunits IC50, 1A/2C
From the text: Many of the properties of native NMDA receptors are seen in recombinant homomeric NR1 receptors. These properties are altered by the NR2 subunits. Recombinant NMDA receptors expressed in Xenopus oocytes have been studied by voltage-clamp recording, as has developmental and regional expression of the mRNAs encoding NMDA receptor subunits. Electrophysiological assays were utilized to characterize the actions of compounds at NMDA receptors expressed in Xenopus oocytes. […]
pIC50: −log10 of the molar value. Structures can show the parent of a compound that is named as a salt.
readout-type: pIC50

Fc1ccc(OCCN2CCC(Nc3ccc(Cl)cc3)CC2)cc1 [Ex. 38, dihydrochloride]    < 4.00
O=c1[nH]c2cccc(OCCN3CCC(Cc4ccc(Cl)cc4)CC3)c2[nH]1    < 4.00
O=c1[nH]c2ccccc2n1C1CCN(CCCOc2ccccc2)CC1 [Ex. 96, hydrobromide]    < 4.00
Nc1cccc(OCCN2CCC(Cc3ccccc3)CC2)c1N    < 4.00
O=c1[nH]c2cccc(OCCN3CCC(Cc4ccccc4)CC3)c2[nH]1    < 4.00
